- System: V. russelli venom sPLA2
- Measurement description: sPLA2 chromogenic inhibition assay, V. russelli venom
- Format: biochemical
- Assay context: chromogenic sPLA2 assay after 60 of incubation, read-out: IC50 for each venom inhibitor
Test readout: IC50 (nM)
Express the result in nM but write the number alone.

QUERY: Value lookup for IC50; key = CCc1c(C(=O)C(N)=O)c2c(OCC(=O)OC)cccc2n1Cc1ccccc1
RESULT: 80

As a next step, examine the compound that follows.
QUERY: Value lookup for IC50; key = CCc1c(C(=O)C(N)=O)c2c(OCC(=O)O)cccc2n1Cc1ccccc1
RESULT: 0.4

###

Reported C. atrox venom MP inhibition % effect values for the following compounds.
- System: C. atrox venom MP
- Measurement description: C. atrox venom MP inhibition
- Format: biochemical
- Assay context: 10 μM
Express the result in % but write the number alone.

QUERY: Value lookup for C. atrox venom MP inhibition % effect; key = CC[C@H](C)C(=O)O[C@H]1CCC=C2C=C[C@H](C)[C@H](CC[C@@H]3C[C@@H](O)CC(=O)O3)[C@H]21
RESULT: 7.17

QUERY: Value lookup for C. atrox venom MP inhibition % effect; key = CCC(C)(C)C(=O)O[C@H]1C[C@@H](C)C=C2C=C[C@H](C)[C@H](CC[C@@H]3C[C@@H](O)CC(=O)O3)[C@H]21
RESULT: 4.03

QUERY: Value lookup for C. atrox venom MP inhibition % effect; key = O=C(O)C[C@H](O)C[C@H](O)/C=C/c1c(C2CC2)nc2ccccc2c1-c1ccc(F)cc1
RESULT: 5.09

As a next step, examine the compound that follows.
QUERY: Value lookup for C. atrox venom MP inhibition % effect; key = CC[C@H](C)C(=O)O[C@H]1C[C@H](O)C=C2C=C[C@H](C)[C@H](CC[C@@H](O)C[C@@H](O)CC(=O)O)[C@H]21
RESULT: 2.27

###

- Target entity: bee venom sPLA2 (Apis mellifera)
- Sequence (P00630 34-167 limits assumed): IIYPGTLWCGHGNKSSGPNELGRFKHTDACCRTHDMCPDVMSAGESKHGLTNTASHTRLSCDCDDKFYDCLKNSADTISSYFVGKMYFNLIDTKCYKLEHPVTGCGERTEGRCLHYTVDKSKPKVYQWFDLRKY
Test readout: IC50

QUERY: Return IC50 measured with bee venom sPLA2 (Apis mellifera) given this compound: NC(=O)c1ccc(Cc2ccccc2)cc1-c1cccc(CCC(=O)O)c1 [Compound 4]
RESULT: > 70 µM

As a next step, examine the compound that follows.
QUERY: Return IC50 measured with bee venom sPLA2 (Apis mellifera) given this compound: CCc1c(C(=O)C(N)=O)c2c(OCC(=O)O)cccc2n1Cc1ccccc1 [Varespladib]
RESULT: 12 to 18 µM
